- Tested target: Cytochrome P450 2C19 (Homo sapiens) (UniProt P33261)
- Sequence (P33261 whole entry, looked up): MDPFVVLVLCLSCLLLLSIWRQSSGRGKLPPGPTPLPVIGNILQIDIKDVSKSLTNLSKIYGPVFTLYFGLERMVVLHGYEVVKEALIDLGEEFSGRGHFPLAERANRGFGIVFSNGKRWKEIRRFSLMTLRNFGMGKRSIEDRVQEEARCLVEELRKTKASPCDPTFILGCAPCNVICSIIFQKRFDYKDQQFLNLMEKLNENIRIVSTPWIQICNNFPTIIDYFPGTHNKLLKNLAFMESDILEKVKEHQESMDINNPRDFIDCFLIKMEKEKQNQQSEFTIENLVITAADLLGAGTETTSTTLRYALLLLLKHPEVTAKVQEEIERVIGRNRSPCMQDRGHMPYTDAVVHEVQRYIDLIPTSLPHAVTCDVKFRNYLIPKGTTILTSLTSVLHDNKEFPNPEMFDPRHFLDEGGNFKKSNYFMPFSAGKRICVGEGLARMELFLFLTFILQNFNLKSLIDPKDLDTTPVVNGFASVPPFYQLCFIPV
- Assay info: Cytochrome P450 Family 2 Subfamily C Member 19 (CYP2C19) small molecule antagonists: luciferase reporter qHTS assay (AID 1671197); further: on the % scale 0 is the no-effect control and ±100 the full control effect; nearly all actives have a fitted effect of over 65% in size
- Assay conditions: P450-Glo CYP2C19 enzyme, luciferin luminescence, 1 h; series mostly up to 115 µM
Inconclusive results are not listed. Active and inactive are the calls of the source. The call rests on the fitted dose curve; in most records, active means well fitted inhibition curve with a large enough effect in the repeat runs; inconclusive means weak or mixed curves; inactive means no such curve, though single readings can be large or run the other way.
Property label: outcome

substance_smiles=c1cnccn1 experimental_result=inactive
substance_smiles=C=CC(=O)Nc1cc2c(Nc3ccc(F)c(Cl)c3)ncnc2cc1OCCCN1CCOCC1 experimental_result=inactive
substance_smiles=C1CCC(SSC2CCCCC2)CC1 experimental_result=inactive
substance_smiles=Cc1ccc(C(=O)O)cc1 experimental_result=inactive

* * *

- Assay info: qHTS assay to identify small molecule agonists of the androgen receptor (AR) signaling pathway in the presence of an antagonist - cell viability counter screen (AID 1259379); further: nearly all actives have a fitted effect of over 25% in size
- Assay conditions: MDA-kb2 viability, CellTiter-Fluor, 16 h; series mostly up to 92.4 µM
Results filed as inconclusive are left out. Active and inactive are the calls of the source. Calls follow the shape of the dose curve; as a rule, active = well fitted cell-killing curve with a large enough effect in the repeat runs; inconclusive = weak or mixed curves, or effect the other way; inactive = flat fitted curve, though single readings scatter.
Hi there, use one of these labels in your reply, thanks! t (active), f (inactive)

compound=OC[C@H]1O[C@H](O[C@H]2O[C@H](CO)[C@@H](O)[C@H](O)[C@H]2O)[C@H](O)[C@@H](O)[C@@H]1O label_class=f
compound=COCCOc1cc2cc(C(=O)NC3CCN(C(C)C)CC3)n(CC(=O)Nc3ccc(Cl)cn3)c2cn1 label_class=f
compound="C=CCCC(=O)/C=C/C1C(C)=CCCC1(C)C (stereo not given)" label_class=f
compound=Nc1nc2c(ncn2COCCO)c(=O)[nH]1 label_class=f
compound=CNC(=O)c1ccccc1Sc1ccc2c(/C=C/c3ccccn3)n[nH]c2c1 label_class=t

[Q] Hi, do you know how O=C(O)c1cc(O)c2ccccc2c1O came out in this test?
[A] t

[Q] CCCCCC(C)OC(=O)COc1ccc(Cl)c2cccnc12 (stereo not given) ?
[A] f

* * *

- Assay info: qHTS assay to identify small molecule antagonists of the estrogen related receptor (ERR) signaling pathway from Tox21 library - cell viability counter screen (AID 1224834); further: nearly all actives have a fitted effect of over 30% in size
- Assay conditions: ERR reporter cells viability, CellTiter-Fluor, 17.5 h; series mostly up to 92.4 µM
Records with an inconclusive call do not appear. Active and inactive are the calls of the source. Calls come from the whole dose curve; as a rule, active = well fitted cell-killing curve with a large enough effect in the repeat runs; inconclusive = weak or mixed curves; inactive = flat fitted curve, though single readings scatter.
Hi there, use one of these labels in your reply, thanks! active, inactive

[Q] Hi, do you know how COc1cc(C)ccc1O came out in this test?
[A] inactive

[Q] Nc1ccc(NCCO)c([N+](=O)[O-])c1 ?
[A] active

* * *

- Assay info: qHTS assay to identify small molecule agonists of the estrogen receptor beta (ER-beta) signaling pathway - cell viability counter screen (AID 1259380); further: on the % scale 0 is the no-effect control and ±100 the full control effect; nearly all actives have a fitted effect of over 30% in size
- Assay conditions: ER-beta-bla HEK293T viability, CellTiter-Glo luminescence, 16 h; series mostly up to 92.4 µM
Inconclusive results are not listed. Calls of active or inactive are those of the source. Calls follow the shape of the dose curve; as a rule, active = well fitted cell-killing curve with a large enough effect in the repeat runs; inconclusive = weak or mixed curves, or effect the other way; inactive = flat fitted curve, though single readings scatter.
Hi there, use one of these labels in your reply, thanks! yes for active, no for inactive

compound=C#Cc1ccc(-c2ccccc2F)cc1 label_class=no

Then there is this compound:
[Q] Hi, do you know how O=C(O)CCN(C1(C(=O)NO)CCCC1)S(=O)(=O)c1ccc(Oc2ccc(F)cc2)cc1 came out in this test?
[A] no

* * *

- Tested target: Progesterone receptor (Homo sapiens)
- Assay info: qHTS assay to identify small molecule antagonists of the progesterone receptor (PR) signaling pathway (AID 1346795)
- Assay conditions: PR-UAS-bla HEK293T, beta-lactamase FRET ratio, 16 h; series mostly up to 92.4 µM
Records with an inconclusive call do not appear. Active and inactive are the calls of the source. The call rests on the fitted dose curve; in most records, active means well fitted inhibition curve with a large enough effect in the signal ratio in the repeat runs (not every such curve was filed as active); inconclusive means weak or mixed curves; inactive means flat fitted curve, though single readings scatter; the % refers to the signal ratio.
Hi there, use one of these labels in your reply, thanks! yes (1) = active, no (0) = inactive

compound=CCCCCCCCCCCCOCCOCCOCCOCCOCCOCCOCCOCCOCCO label_class="yes (1)"
compound=O=C1C(c2[nH]c3ccc(S(=O)(=O)O)cc3c2O)=Nc2ccc(S(=O)(=O)O)cc21 label_class="no (0)"
compound=COc1ccc(NC(=O)CC(C)=O)cc1 label_class="no (0)"
compound=CC[C@H](C)COC(=O)/C=C/c1ccc(N=Cc2ccc(OC)cc2)cc1 label_class="yes (1)"
compound=O=[N+]([O-])c1cccc(C(F)(F)F)c1 label_class="no (0)"

[Q] Hi, do you know how CCc1cccc(CC)c1NC(=O)CN(CC(=O)O)CC(=O)O came out in this test?
[A] no (0)

[Q] Cc1cc(C(C#N)c2ccc(Cl)cc2)c(Cl)cc1NC(=O)c1cc(I)cc(I)c1O (stereo unspecified) ?
[A] yes (1)

[Q] OC[C@@H](O)[C@@H](O)CO ?
[A] no (0)

[Q] Sc1nc2ccccc2s1 ?
[A] no (0)

[Q] CC1=CCC(=C(C)C)CC1 ?
[A] no (0)

[Q] CCCCN(CCCC)CC(O)c1cc(Cl)cc2c1-c1ccc(Cl)cc1/C2=C/c1ccc(Cl)cc1 (stereo unspecified) ?
[A] no (0)

[Q] CC(C)(C)c1ccc(C(O)CCCN2CCC(C(O)(c3ccccc3)c3ccccc3)CC2)cc1 (stereo unspecified) ?
[A] no (0)

[Q] C=CCn1c(=O)n(CC=C)c(=O)n(CC=C)c1=O ?
[A] no (0)

[Q] O=[N+]([O-])c1ccc(F)c(Cl)c1 ?
[A] no (0)

[Q] CCc1oc2ccccc2c1C(=O)c1cc(I)c(O)c(I)c1 ?
[A] yes (1)

[Q] CCC(C)n1ncn(-c2ccc(N3CCN(c4ccc(OC[C@H]5CO[C@](Cn6cncn6)(c6ccc(Cl)cc6Cl)O5)cc4)CC3)cc2)c1=O (stereo partly specified) ?
[A] no (0)

* * *

- Assay info: qHTS assay to identify small molecule agonists of the retinoic acid receptor (RAR) signaling pathway (AID 1159553); further: on the % scale 0 is the no-effect control and ±100 the full control effect
- Assay conditions: C3RL4 RARE luciferase reporter, agonist, 6 h
Records with an inconclusive call do not appear. Activity calls are given as the source filed them. Calls follow the shape of the dose curve; as a rule, active = well fitted activation curve with a large enough effect in the repeat runs; inconclusive = weak or mixed curves, or effect the other way; inactive = no such curve, though single readings can be large or run the other way.
Property label: outcome

molecule=CCCC(=O)OC(C)(C)Cc1ccccc1 property_label=outcome experimental_result=inactive
molecule="CCCCCCC1CCCC(=O)O1 (stereo not drawn)" property_label=outcome experimental_result=inactive
molecule=OC[C@@H](O)[C@@H](O)CO property_label=outcome experimental_result=inactive

* * *

- Assay info: qHTS assay for identifying genotoxic compounds that show differential cytotoxicity against isogenic chicken DT40 cell lines with known DNA damage response pathways - Rad54/Ku70 mutant cell line (AID 743015); further: nearly all actives have a fitted effect of over 60% in size; further: potency means the concentration at half of the fitted maximal effect
- Assay conditions: DT40 Rad54/Ku70 mutant viability, CellTiter-Glo, 40 h; series mostly up to 66.8 µM
- Source text: National Center for Advancing Translational Sciences [NCATS] NIH Chemical Genomics Center [NCGC] U.S. Environmental Protection Agency [EPA] National Institutes of Environmental Health Sciences [NIEHS] National Toxicology Program [NTP] U.S. Food and Drug Administration [FDA] DNA repair pathways play a critical role in cellular homeostasis by repairing DNA damage induced by endogenous processes and xenobiotics. […]
Records with an inconclusive call do not appear. The source made the active and inactive calls. Calls follow the shape of the dose curve; as a rule, active = well fitted cell-killing curve with a large enough effect in the repeat runs; inconclusive = weak or mixed curves; inactive = no such curve, though single readings can be large or run the other way.
Property label: Potency

Reference set, count: 6
molecule="CC(CCc1ccccc1)NCC(O)c1ccc(O)c(C(N)=O)c1 (stereo not drawn)" experimental_result=inactive
molecule=Nc1cc(Cl)c(O)c(Cl)c1 experimental_result="24.3 µM (active)"
molecule=O=[N+]([O-])c1ccc(F)c(Cl)c1 experimental_result=inactive
molecule=Cc1c(C)c2c(c(C)c1O)CC[C@@](C)(CCC[C@H](C)CCC[C@H](C)CCCC(C)C)O2 experimental_result=inactive
molecule=C1CCC(SSC2CCCCC2)CC1 experimental_result=inactive
molecule=S=C([S-])NCCNC(=S)[S-].S=C([S-])NCCNC(=S)[S-].[Mn+2].[Zn+2] experimental_result="29.8 µM (active)"

[Q] Query: Potency; subject: Cc1cc(-c2ccc(N=Nc3cc(S(=O)(=O)O)c4ccccc4c3N)c(C)c2)ccc1N=Nc1cc(S(=O)(=O)O)c2ccccc2c1N
[A] 0.346 µM (active)

[Q] O=C(Oc1ccccc1)Oc1ccccc1 ?
[A] inactive

* * *

- Assay info: qHTS assay to identify small molecule agonists of the androgen receptor (AR) signaling pathway in the presence of an antagonist - cell viability counter screen (AID 1259379); further: nearly all actives have a fitted effect of over 25% in size
- Assay conditions: MDA-kb2 viability, CellTiter-Fluor, 16 h; series mostly up to 92.4 µM
Inconclusive results are not listed. Active and inactive are the calls of the source. The call rests on the fitted dose curve; in most records, active means well fitted cell-killing curve with a large enough effect in the repeat runs; inconclusive means weak or mixed curves, or effect the other way; inactive means flat fitted curve, though single readings scatter.
Property label: outcome

Reference set, count: 5
compound=OC[C@@H](O)[C@@H](O)CO property_label=outcome experimental_result=inactive
compound=CC1(C)CCC[C@]2(C)[C@H]3CC(=O)O[C@]3(C)CC[C@@H]12 property_label=outcome experimental_result=inactive
compound="CCCC(=O)OCOC(=O)C1=C(C)NC(C)=C(C(=O)OC)C1c1cccc(Cl)c1Cl (stereo not drawn)" property_label=outcome experimental_result=inactive
compound="CCO[C@@H]1O[C@H](C(COCc2ccccc2)OCc2ccccc2)[C@H](OCc2ccccc2)[C@H]1O (stereo partly drawn)" property_label=outcome experimental_result=inactive
compound="CC(C(=O)O)c1ccc2c(c1)[nH]c1ccc(Cl)cc12 (stereo not drawn)" property_label=outcome experimental_result=inactive

[Q] Query: outcome; subject: CCOC(=O)NNc1ccc(N(CC)CC(C)O)nn1 (stereo not drawn)
[A] inactive

[Q] CC(C)NC[C@@H](O)COc1ccc(CC(N)=O)cc1 ?
[A] inactive

[Q] CCC(=O)OC(=O)CC ?
[A] inactive

[Q] COC(=O)c1ccccc1OC ?
[A] inactive

[Q] Cc1ccc(C)cc1 ?
[A] inactive

[Q] [Cl][Pt-2]([Cl])([Cl])[Cl] ?
[A] inactive

[Q] Nc1nc(N)nc(-c2cc(Cl)ccc2Cl)n1 ?
[A] inactive

[Q] c1cnccn1 ?
[A] inactive
